For each record, write down the corresponding EC50.
Molecular target: recombinant human prostanoid EP2 receptor (Homo sapiens (Human), UniProt P43116)
Sequence (P43116 whole entry): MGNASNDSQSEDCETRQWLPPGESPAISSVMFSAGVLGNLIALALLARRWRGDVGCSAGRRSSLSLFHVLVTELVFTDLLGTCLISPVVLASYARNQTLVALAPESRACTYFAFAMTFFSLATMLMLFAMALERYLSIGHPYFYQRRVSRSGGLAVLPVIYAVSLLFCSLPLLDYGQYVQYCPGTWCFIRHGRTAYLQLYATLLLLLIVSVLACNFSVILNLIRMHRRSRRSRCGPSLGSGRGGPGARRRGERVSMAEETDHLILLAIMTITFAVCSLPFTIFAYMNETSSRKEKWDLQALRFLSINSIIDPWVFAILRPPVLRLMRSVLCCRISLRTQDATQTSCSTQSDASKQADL
Experiment: Human prostanoid EP2 receptor cellular functional assay (cAMP, HTRF)
Conditions: CHO cells expressing recombinant human EP2; cAMP by HTRF; 30 min, 37° C.; read-out: In vitro functional assay EP2 (h) EC50
Give bare numbers, in µM.

Example entries begin here.
1. N#Cc1cc(CNc2c(F)ccc(OCC(=O)O)c2F)cc(-c2cccc(F)c2)c1	0.027
2. Cc1cc(CNc2c(F)ccc(OCC(=O)O)c2C)cc(-c2cccc(F)c2)c1	0.003
3. COc1cc(CNc2c(C)ccc(OCC(=O)O)c2C)cc(-c2cccc(F)c2)c1	0.003
4. COc1cc(CNc2c(F)ccc(OCC(=O)O)c2F)cc(-c2cccc(F)c2)c1	0.018

List EC50 for every entry below, keeping the order given.
1. COc1c(C)cc(-c2cccc(F)c2)cc1CNc1c(C)ccc(OCC(=O)O)c1C
2. O=C(O)COc1ccc(F)c(NCc2cc(O)cc(-c3cccc(F)c3)c2)c1F
3. O=C(O)COc1ccc(F)c(NCc2cc(-c3cccc(F)c3)ccc2F)c1Cl
4. Cc1cc(-c2cccc(F)c2)cc(CNc2c(F)ccc(OCC(=O)O)c2F)c1O
5. O=C(O)COc1ccc(Cl)c(NCc2cc(-c3cccc(F)c3)ccc2F)c1Cl [I(r)]
6. Cc1cc(-c2cccc(F)c2)cc(CNc2c(F)ccc(OCC(=O)O)c2C)c1C

1: 0.0009; 2: 0.017; 3: 0.034; 4: 0.009; 5: 0.045; 6: 0.006

// each compound listed below needs its EC50
1. Cc1c(-c2cccc(F)c2)ccc(F)c1CNc1c(F)ccc(OCC(=O)O)c1F
2. O=C(O)COc1ccc(F)c(NCc2cc(F)cc(-c3cccc(F)c3)c2)c1F
3. Cc1cc(-c2ccccc2)cc(CNc2c(F)ccc(OCC(=O)O)c2F)c1C
4. Cc1cc(-c2cccc(F)c2)cc(CNc2c(C)ccc(OCC(=O)O)c2C)c1C
5. Cc1cc(-c2cccc(F)c2)cc(CNc2c(F)ccc(OCC(=O)O)c2F)c1F
6. N#Cc1c(OCC(=O)O)ccc(F)c1NCc1cc(-c2cccc(F)c2)ccc1F
7. Cc1ccc(OCC(=O)O)c(C)c1NCc1cc(-c2cccc(F)c2)cc(F)c1C

1. 0.13
2. 0.052
3. 0.015
4. 0.002
5. 0.013
6. 0.009
7. 0.003

Quick one: give me EC50 for each item below, same order please.
1. C[C@@H](Nc1c(F)ccc(OCC(=O)O)c1F)c1cc(-c2cccc(F)c2)ccc1F (single isomer, unassigned) [I(as) (+ isomer)]
2. Cc1cc(CNc2c(C)ccc(OCC(=O)O)c2C)cc(-c2cccc(F)c2)c1
3. O=C(O)COc1ccc(F)c(NCc2cccc(-c3cccc(F)c3)c2)c1F [I(e)]
4. Cc1cc(-c2cccc(F)c2)cc(CNc2c(F)ccc(OCC(=O)O)c2F)c1C
5. Cc1c(F)cc(-c2cccc(F)c2)cc1CNc1c(F)ccc(OCC(=O)O)c1C

0.018
0.007
0.16
0.002
0.005

Required: EC50, one value per compound below.
1. Cc1ccc(OCC(=O)O)c(C)c1NCc1cc(-c2cccc(F)c2)ccc1F
2. COc1c(C)cc(-c2cccc(F)c2)cc1CNc1c(F)ccc(OCC(=O)O)c1F
3. Cc1c(OCC(=O)O)ccc(F)c1NCc1cc(O)cc(-c2cccc(F)c2)c1
4. Cc1c(OCC(=O)O)ccc(F)c1NCc1cc(-c2cccc(F)c2)ccc1F
5. Cc1cc(-c2cccc(F)c2)cc(CNc2c(F)ccc(OCC(=O)O)c2C)c1F
6. Cc1c(F)cc(-c2cccc(F)c2)cc1CNc1c(F)ccc(OCC(=O)O)c1F
7. O=C(O)COc1ccc(F)c(NCc2cc(O)cc(-c3cccc(F)c3)c2F)c1F

0.026
0.017
0.008
0.01
0.002
0.003
0.16

Hello, the source for this data is patent US9249085B2, in case you need it.
